Hello, the source for this data is ChEMBL document CHEMBL1649286, in case you need it.

system: Klebsiella pneumoniae; experiment: Antimicrobial activity against multidrug-resistant Klebsiella pneumoniae isolates assessed as susceptible isolates by microdilution method; format: functional
Quantity kind: Activity (%)
Field: numeric (%). Do not append units.

Worked examples, 4 compounds total:
NC[C@H]1O[C@H](O[C@H]2[C@H](O)[C@@H](O[C@H]3O[C@H](CO)[C@@H](O)[C@H](N)[C@H]3O)[C@H](N)C[C@@H]2N)[C@H](N)C[C@@H]1O ... 10.8
C[C@@H](O)[C@H]1C(=O)N2C(C(=O)O)=C(SCCNC=N)C[C@H]12 [IMIPENEM ANHYDROUS] ... 75.5
CC(C)(O/N=C(\C(=O)N[C@@H]1C(=O)N2C(C(=O)[O-])=C(C[n+]3ccccc3)CS[C@H]12)c1csc(N)n1)C(=O)O ... 9.8
CN(C)c1cc(NC(=O)CNC(C)(C)C)c(O)c2c1C[C@H]1C[C@H]3[C@H](N(C)C)C(O)=C(C(N)=O)C(=O)[C@@]3(O)C(O)=C1C2=O ... 90.2

Query Activity on Klebsiella pneumoniae for NCC[C@H](O)C(=O)N[C@@H]1C[C@H](N)[C@@H](O[C@H]2O[C@H](CN)[C@@H](O)[C@H](O)[C@H]2O)[C@H](O)[C@H]1O[C@H]1O[C@H](CO)[C@@H](O)[C@H](N)[C@H]1O
78.4
